Each entry below carries its recorded binding signal.
- Target: d-enCas12a-Ultra (Acidaminococcus sp., UniProt U2UMQ6 1-1307, E174R;S542R;K548R;M537R;F870L;D908A;E993A;D1235A)
- Experiment: Spec-seq (native PAGE EMSA with sequencing of bound and unbound); 25 mM Tris-HCl pH 7.4, 150 mM KCl, 5 mM MgCl2, 10% glycerol, 1 mM DTT, 40 ng/uL salmon sperm DNA; 400 nM Cas12a, 480 nM crRNA, 50 nM library, 37 C 1 h; native PAGE at room temperature; high values mean tight binding;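 also: relative affinity from the bound to unbound sequence frequency ratio in Spec-seq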
- Details: protein: recombinant
Property Name: binding signal (lnKA)

{"columns": ["Binder", "Numeric Readout"],
 "data": [
  ["TAGG (dsDNA) DNA 1: GCTATCTAGTGCTCAGTACGCACTGTAGGAGGAAACTTCTGGCAGGACCAGGTCATGAGATCGGAAGAGCACACGTCTGAACTCCAGTCA DNA 2: TGACTGGAGTTCAGACGTGTGCTCTTCCGATCTCATGACCTGGTCCTGCCAGAAGTTTCCTCCTACAGTGCGTACTGAGCACTAGATAGC RNA: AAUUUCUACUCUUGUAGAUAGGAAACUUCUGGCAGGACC", -3.37],
  ["GATT (dsDNA) DNA 1: GCTATCTAGTGCTCAGTACGCACTGGATTAGGAAACTTCTGGCAGGACCAGGTCATGAGATCGGAAGAGCACACGTCTGAACTCCAGTCA DNA 2: TGACTGGAGTTCAGACGTGTGCTCTTCCGATCTCATGACCTGGTCCTGCCAGAAGTTTCCTAATCCAGTGCGTACTGAGCACTAGATAGC RNA: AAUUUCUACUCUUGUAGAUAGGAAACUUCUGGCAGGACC", -3.21],
  ["GCTG (dsDNA) DNA 1: GCTATCTAGTGCTCAGTACGCACTGGCTGAGGAAACTTCTGGCAGGACCAGGTCATGAGATCGGAAGAGCACACGTCTGAACTCCAGTCA DNA 2: TGACTGGAGTTCAGACGTGTGCTCTTCCGATCTCATGACCTGGTCCTGCCAGAAGTTTCCTCAGCCAGTGCGTACTGAGCACTAGATAGC RNA: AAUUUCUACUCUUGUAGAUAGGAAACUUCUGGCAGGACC", -2.73]
]}
